Listed next: entries and their corresponding IDRFaSSIF-V1.
- method summary: Intrinsic dissolution rate from controlled suspensions (SIDR), μDiss Profiler
- Assay type: physicochemical
- assay context: suspension (S), FaSSIF-V1 pH 6.5, 37 °C, 100 rpm, mean ± SD
property: IDRFaSSIF-V1 (μg/min/cm^2)

{"compound": "OCCN(CCO)c1nc(N2CCCCC2)c2nc(N(CCO)CCO)nc(N3CCCCC3)c2n1 [Dipyridamole]", "property": "IDRFaSSIF-V1", "measured number": 0.5}
{"compound": "Cc1cccc(Nc2ccccc2C(=O)O)c1C [Mefenamic acid]", "property": "IDRFaSSIF-V1", "measured number": 13.9}
{"compound": "C(=C\\c1ccccc1)/CN1CCN(C(c2ccccc2)c2ccccc2)CC1 [Cinnarizine]", "property": "IDRFaSSIF-V1", "measured number": 0.3}
{"compound": "Cc1c(Cl)cccc1Nc1ccccc1C(=O)O [Tolfenamic acid]", "property": "IDRFaSSIF-V1", "measured number": 4.1}
{"compound": "COc1ccc(CCN2CCC(Nc3nc4ccccc4n3Cc3ccc(F)cc3)CC2)cc1 [Astemizole]", "property": "IDRFaSSIF-V1", "measured number": 8.6}
{"compound": "CC(=O)[C@H]1CC[C@H]2[C@@H]3CCC4=CC(=O)CC[C@]4(C)[C@H]3CC[C@]12C [Progesterone]", "property": "IDRFaSSIF-V1", "measured number": 16.8}
{"compound": "COc1ccccc1OCCNCC(O)COc1cccc2[nH]c3ccccc3c12 (centres unmarked) [Carvedilol]", "property": "IDRFaSSIF-V1", "measured number": 2.9}
{"compound": "CCOC(=O)C1=C(C)NC(C)=C(C(=O)OC)C1c1cccc(Cl)c1Cl (centres unmarked) [Felodipine]", "property": "IDRFaSSIF-V1", "measured number": 0.8}
{"compound": "C#C[C@]1(O)CC[C@H]2[C@@H]3CCC4=Cc5oncc5C[C@]4(C)[C@H]3CC[C@@]21C [Danazol]", "property": "IDRFaSSIF-V1", "measured number": 0.14}
{"compound": "CC(C)OC(=O)C(C)(C)Oc1ccc(C(=O)c2ccc(Cl)cc2)cc1 [Fenofibrate]", "property": "IDRFaSSIF-V1", "measured number": 0.04}
{"compound": "COc1ccc2c(c1OC)C(=O)O[C@@H]2[C@H]1c2c(cc3c(c2OC)OCO3)CCN1C [Noscapine]", "property": "IDRFaSSIF-V1", "measured number": 1.1}
{"compound": "CC(C)(Oc1ccc(CCNC(=O)c2ccc(Cl)cc2)cc1)C(=O)O [Bezafibrate]", "property": "IDRFaSSIF-V1", "measured number": 32.7}
{"compound": "CN1CC(=O)N2[C@H](c3ccc4c(c3)OCO4)c3[nH]c4ccccc4c3C[C@@H]2C1=O [Tadalafil]", "property": "IDRFaSSIF-V1", "measured number": 3.4}
{"compound": "COC1=CC(=O)C[C@@H](C)[C@]12Oc1c(Cl)c(OC)cc(OC)c1C2=O [Griseofulvin]", "property": "IDRFaSSIF-V1", "measured number": 3.7}
